tgt: T1, Ax1 protein, extracellular domain (human, UniProt P30530 26-451)
T1 construct: extracellular domain; also called Axl; Ark
T1 sequence (looked up): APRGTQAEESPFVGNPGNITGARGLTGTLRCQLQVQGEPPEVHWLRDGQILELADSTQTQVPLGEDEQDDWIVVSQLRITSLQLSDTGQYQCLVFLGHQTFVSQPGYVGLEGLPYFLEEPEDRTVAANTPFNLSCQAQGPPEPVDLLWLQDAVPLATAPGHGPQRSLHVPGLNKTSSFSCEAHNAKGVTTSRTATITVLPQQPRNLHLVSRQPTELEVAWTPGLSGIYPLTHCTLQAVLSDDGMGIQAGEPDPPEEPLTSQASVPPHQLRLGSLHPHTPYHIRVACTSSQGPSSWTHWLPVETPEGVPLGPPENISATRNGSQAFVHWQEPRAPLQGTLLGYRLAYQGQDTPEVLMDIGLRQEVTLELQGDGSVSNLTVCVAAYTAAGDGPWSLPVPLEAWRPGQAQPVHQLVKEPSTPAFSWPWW
assay_comment: ELISA, mutant diluted 1:9
readout_type: Affinity ELISA CPE mutant ratio (1:9, pH 6.0/7.4)
One number for each entry.

Examples with answers:
>>> measured_value("HC-M107E (antibody, V domains shown, CPE single point mutant) VH: EVQLVQSGAEVKKPGATVKISCKVSGYSFTGHTMNWIRQPPGKGLEWIGLIKPSNGGTSYNQKFKGRVTISADKSISTAYLQWSSLKASDTAMYYCAHGHYESYFAEDYWGQGTLVTVSS VL: DIQMTQSPSSLSASVGDRVTITCKASQDVSSAVAWYQQKPGQAPRLLIYWASTRHTGVPSRFSGSGSGTEFTLTISSLQPDDFATYYCQEHFSTPLTFGQGTKVEIK")
1.36
>>> measured_value("HC-A106L (antibody, V domains shown, CPE single point mutant) VH: EVQLVQSGAEVKKPGATVKISCKVSGYSFTGHTMNWIRQPPGKGLEWIGLIKPSNGGTSYNQKFKGRVTISADKSISTAYLQWSSLKASDTAMYYCAHGHYESYFLMDYWGQGTLVTVSS VL: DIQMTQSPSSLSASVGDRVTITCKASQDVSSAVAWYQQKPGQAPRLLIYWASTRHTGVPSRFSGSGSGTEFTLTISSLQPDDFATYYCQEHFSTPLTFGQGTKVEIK")
1.61

We next turn to a different binder, shown below.
Task: Quick check: Affinity ELISA CPE mutant ratio (1:9, pH 6.0/7.4) of HC-S103Q (antibody, V domains shown, CPE single point mutant) VH: EVQLVQSGAEVKKPGATVKISCKVSGYSFTGHTMNWIRQPPGKGLEWIGLIKPSNGGTSYNQKFKGRVTISADKSISTAYLQWSSLKASDTAMYYCAHGHYEQYFAMDYWGQGTLVTVSS VL: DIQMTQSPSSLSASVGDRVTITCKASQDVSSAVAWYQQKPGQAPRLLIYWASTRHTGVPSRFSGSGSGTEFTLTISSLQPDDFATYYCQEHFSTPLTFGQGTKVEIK ?
Result: 2.26
